Source: patent US20260001914A1

molecular target: phosphorylation levels of ERK1/2 in AsPC-1 (homozygous KRAS-G12D) cells (Homo sapiens, UniProt P01116, G12D); assay: Cellular phospho-ERK assay in AsPC-1 cells (Alpha Screen), assay medium without fetal bovine serum; details: phospho-ERK AlphaScreen, 18 h;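 also: signal taken as phospho-ERK over total ERK per well, both detected in one multiplex bead assay, EC50 from four-parameter logistic fit of dose-response curves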
Sequence (P01116 1-186 G12D): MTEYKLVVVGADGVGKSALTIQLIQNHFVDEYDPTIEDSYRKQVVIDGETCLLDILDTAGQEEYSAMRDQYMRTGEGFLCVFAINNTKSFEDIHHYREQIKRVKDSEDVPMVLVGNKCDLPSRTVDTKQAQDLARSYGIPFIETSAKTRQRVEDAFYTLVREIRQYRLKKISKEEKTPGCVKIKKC
*1 amine or outer side, *2 acyl side, *3 side chain or, on linkers, in order; H or OH if unused. Where a SMILES comes first, the peptide text is derived from it. [ ]: non-standard residue; d: D form. X44 = C[C@@H](c1ccccc1)[C@@H](C(=O)[*:2])N(C)[*:1]; Ala(pyrimidin-5-yl) = N[C@@H](Cc1cncnc1)C(=O)O; X11 = CC(C)(F)CC[C@H](N[*:1])C(=O)[*:2]; Phe(4-Me) = Cc1ccc(C[C@H](N)C(=O)O)cc1; Phe(2-F) = N[C@@H](Cc1ccccc1F)C(=O)O; NMe3Pal = CN[C@@H](Cc1cccnc1)C(=O)O; X1 = O=C(C12CC(CN[*:1])(C1)C2)[*:2]; Ala(cPr) = N[C@@H](CC1CC1)C(=O)O; PhLac = O=C(O)[C@@H](O)Cc1ccccc1; 3Pal = N[C@@H](Cc1cccnc1)C(=O)O; NMeA = CN[C@@H](C)C(=O)O; Nle = CCCC[C@H](N)C(=O)O
MEASURED PARAMETER: EC50 (µM)
Give the quantity in µM, number only.

{"COMPOUND": "CCCC[C@@H]1NC(=O)[C@H](Cc2cccnc2)NC(=O)[C@H](C)N(C)C(=O)[C@H](Cc2ccc(C)cc2)NC(=O)C23CC(CNC(=O)[C@H](Cc4cccnc4)N(C)C(=O)[C@H](CCCC)NC(=O)[C@H](Cc4ccccc4F)NC1=O)(C2)C3 [compound 170] (cyclo([3Pal][Nle][Phe(2-F)][Nle][NMe3Pal][X1][Phe(4-Me)][NMeA]))", "U": "µM", "VALUE MEASURED": 37.2}

Lab note: next compound to report on.
What measured EC50 goes with C[C@@H](c1ccccc1)[C@H]1C(=O)NCC23CC(C2)(C3)C(=O)O[C@@H](Cc2ccccc2)C(=O)N(C)[C@@H](C)C(=O)N[C@@H](Cc2cncnc2)C(=O)N[C@@H](CC2CC2)C(=O)N[C@@H](Cc2ccccc2F)C(=O)N[C@@H](CCC(C)(C)F)C(=O)N1C [compound 340] (cyclo([Ala(cPr)][Phe(2-F)][X11][X44][X1][PhLac][NMeA][Ala(pyrimidin-5-yl)])) ?
4.25
